# Lookup of reported IC50 keyed by entry
# Test system: A2780
# methodDescription: Antiproliferative activity against human A2780 cells assessed as inhibition of cell proliferation after 72 hrs by MTT assay
# Format: functional, cell-based
# experimentalContext: A2780, 72 h

{"columns": ["molecule", "IC50"],
 "data": [
  ["C=C1C(=O)O[C@@H]2C[C@]3(C)O[C@@H](O[C@@H]3CC(=O)C(C)=O)[C@@H](OC(=O)CC(C)C)[C@@H]12 (relative stereo)", "9.8 µM"],
  ["C=C1C(=O)O[C@@H]2[C@@H](O)[C@@H](C)C3=CC(=O)[C@](C)(O3)[C@H](O)[C@@H](OC(=O)CC(C)C)[C@@H]12 (relative stereo)", "> 10 µM"],
  ["C=C1C(=O)O[C@@H]2[C@@H]1[C@H](OC(=O)CC(C)C)C[C@@]1(C)[C@H](O)C[C@H](OC(C)=O)C(=C)[C@H]21 (relative stereo)", "7.2 µM"],
  ["C=C1C(=O)O[C@@H]2/C=C(\\C)[C@H](O)C[C@H]3O[C@]3(C)C[C@@H](OC(=O)CC(C)C)[C@@H]12 (relative stereo)", "4.7 µM"]
]}

Alright, here's another molecule for you.
Note IC50 for the molecule shown: C=C1C(=O)O[C@@H]2C[C@@]3(C)O[C@H](O[C@H]3CC(=O)C(C)=O)[C@@H](OC(=O)CC(C)C)[C@@H]12 (relative stereo)
5.4 µM
